# measurement-target: T1, human HL (hepatic lipase) (human, UniProt P11150 23-499)
# T1 sequence (looked up): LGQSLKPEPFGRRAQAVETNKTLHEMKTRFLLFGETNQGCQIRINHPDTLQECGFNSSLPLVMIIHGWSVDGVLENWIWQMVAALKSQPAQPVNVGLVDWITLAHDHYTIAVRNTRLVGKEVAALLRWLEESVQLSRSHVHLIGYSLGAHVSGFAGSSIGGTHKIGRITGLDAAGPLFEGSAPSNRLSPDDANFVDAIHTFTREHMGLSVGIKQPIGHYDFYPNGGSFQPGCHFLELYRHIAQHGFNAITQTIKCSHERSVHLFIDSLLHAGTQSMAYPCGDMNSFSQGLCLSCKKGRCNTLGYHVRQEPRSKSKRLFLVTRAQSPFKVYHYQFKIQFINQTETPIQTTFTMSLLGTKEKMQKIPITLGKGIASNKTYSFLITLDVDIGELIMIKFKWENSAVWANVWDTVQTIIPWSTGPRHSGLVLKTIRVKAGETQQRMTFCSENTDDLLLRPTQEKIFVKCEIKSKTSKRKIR
# assay-explanation: cell-based or functional assay
readout-label: Neutralizing activity IC50

# return recorded Neutralizing activity IC50 for input h53A11-S1 (antibody, V domains shown) VH: QVQLVQSGAEVKKPGASVKVSCKASGYTFTDYTMHWVRQAPGQRLEWMGGINPYYGGTTYNEKFKDRVTITRDTSASTAYMELSSLRSEDTAVYYCAKGDYYGGSYNYWGQGTTVTVSS VL: EIVMTQSLATLSVSPGERATLSCRASQDISNSLHWYQQKPGQAPRLLIKYASQSISGIPARFSGSGSGTEFTLTISSLQSEDFAVYYCQQSNSWPYTFGQGTKLEIK
> 400 nM

# return recorded Neutralizing activity IC50 for input h23H8-S2 (antibody, V domains shown) VH: QVQLVQSGAEVKKPGASVKVSCKASGYTFTDNTIHWVRQAPGQGLEWMGHINPYYGGTNNNEKFKDRVTMTRDTSISTAYMELSRLRSDDTAVYYCARKGIYYSSPFDYWGQGTTVTVSS VL: DIQMTQSPSSLSASVGDRVTITCRASQDINNYLNWYQQKPGKAPKLLISYTSKLHSGVPSRFSGSGSGTDFTLTISSLQREDFATYYCQQGNTLPFTFGQGTKLEIK
> 400 nM

# return recorded Neutralizing activity IC50 for input h16B3-S2 (antibody, V domains shown, humanized) VH: EVQLVESGGGLVQPGGSLRLSCAASGFTFSGYTMSWVRQAPGKGLEWVSEISFARDRAFYPDTVKGRFTISRDNSKNTLYLQMNSLRAEDTAVYYCARLGGRNHDYWYFDVWGQGTTVTVSS VL: DIVMTQSPDSLAVSLGERATINCRASESVEYYGTSLMQWYQQKPGQPPKLLIYAASNVESGVPDRFSGSGSGTDFTLTISSLQAEDVAVYYCQQSWKVPFTFGQGTKLEIK
> 400 nM

# return recorded Neutralizing activity IC50 for input h55A1-S1 (antibody, V domains shown, humanized) VH: QVQLVQSGSELKKPGASVKVSCKASGYTFTNYGMNWVRQAPGQGLEWMGWINTYSGVPTYAGDFKGRFVFSLDTSVSTAYLQISSLKAEDTAVYYCARRGYYGRRYFDVWGKGTTVTVSS VL: DIVLTQSPASLAVSPGQRATITCKASQSVDYDVDSYMHWYQQKPGQPPKLLIYAASNLASGVPARFSGSGSGTDFTLTINPVEANDTANYYCQQTIEDPPTFGGGTKVEIK
> 1800 nM

# return recorded Neutralizing activity IC50 for input h13B3-S1 (antibody, V domains shown) VH: QVQLVQSGAEVKKPGASVKVSCKASGYTFTEYTMHWVRQAPGQGLEWMGSINPYYGGTSYNEKFKDRVTMTRDTSTSTVYMELSSLRSEDTAVYYCARYGNYVGYFDYWGQGTTVTVSS VL: EIVLTQSPGTLSLSPGERATLSCRASSSVHYMYWYQQKPGQAPRLLIYYTSNLAPGIPDRFSGSGSGTDFTLTISRLEPEDFAVYYCQQFTSSPYTFGGGTKVEIK
> 400 nM
